# credit: paper PMC8717366

pIC50 listing for selected compounds.
SYSTEM UNDER TEST: α5β1-fibronectin (Homo sapiens, UniProt P05556+P08648)
Construct: host or cells: K562 wild type
Sequence (P08648 42-894 limits assumed): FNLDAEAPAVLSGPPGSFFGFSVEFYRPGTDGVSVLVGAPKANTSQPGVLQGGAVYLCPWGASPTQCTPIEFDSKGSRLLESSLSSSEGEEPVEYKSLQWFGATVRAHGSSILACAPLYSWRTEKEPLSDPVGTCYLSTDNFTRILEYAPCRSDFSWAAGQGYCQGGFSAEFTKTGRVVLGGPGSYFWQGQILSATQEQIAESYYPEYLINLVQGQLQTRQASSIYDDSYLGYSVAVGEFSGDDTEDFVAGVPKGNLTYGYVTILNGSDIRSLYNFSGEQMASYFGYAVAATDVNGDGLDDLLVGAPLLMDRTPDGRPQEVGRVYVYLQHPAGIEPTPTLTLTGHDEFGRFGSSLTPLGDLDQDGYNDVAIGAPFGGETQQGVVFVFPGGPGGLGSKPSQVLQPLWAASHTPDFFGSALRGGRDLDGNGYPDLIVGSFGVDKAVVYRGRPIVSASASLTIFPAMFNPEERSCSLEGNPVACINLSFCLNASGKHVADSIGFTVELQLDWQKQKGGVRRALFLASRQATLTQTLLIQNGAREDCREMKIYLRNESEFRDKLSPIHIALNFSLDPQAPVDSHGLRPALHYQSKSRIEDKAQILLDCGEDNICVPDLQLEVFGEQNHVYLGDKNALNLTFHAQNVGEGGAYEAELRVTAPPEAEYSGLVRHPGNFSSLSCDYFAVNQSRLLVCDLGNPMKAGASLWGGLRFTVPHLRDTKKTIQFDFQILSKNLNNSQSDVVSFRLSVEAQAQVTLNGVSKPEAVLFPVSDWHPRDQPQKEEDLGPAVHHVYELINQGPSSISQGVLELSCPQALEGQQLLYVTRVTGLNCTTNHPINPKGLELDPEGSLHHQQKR
Sequence (P08648 895-1049 limits assumed): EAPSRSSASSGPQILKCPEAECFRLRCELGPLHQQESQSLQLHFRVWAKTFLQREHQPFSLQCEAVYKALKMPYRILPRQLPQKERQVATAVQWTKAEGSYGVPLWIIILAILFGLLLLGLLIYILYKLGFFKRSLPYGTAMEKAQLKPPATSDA
Sequence (P05556 21-798): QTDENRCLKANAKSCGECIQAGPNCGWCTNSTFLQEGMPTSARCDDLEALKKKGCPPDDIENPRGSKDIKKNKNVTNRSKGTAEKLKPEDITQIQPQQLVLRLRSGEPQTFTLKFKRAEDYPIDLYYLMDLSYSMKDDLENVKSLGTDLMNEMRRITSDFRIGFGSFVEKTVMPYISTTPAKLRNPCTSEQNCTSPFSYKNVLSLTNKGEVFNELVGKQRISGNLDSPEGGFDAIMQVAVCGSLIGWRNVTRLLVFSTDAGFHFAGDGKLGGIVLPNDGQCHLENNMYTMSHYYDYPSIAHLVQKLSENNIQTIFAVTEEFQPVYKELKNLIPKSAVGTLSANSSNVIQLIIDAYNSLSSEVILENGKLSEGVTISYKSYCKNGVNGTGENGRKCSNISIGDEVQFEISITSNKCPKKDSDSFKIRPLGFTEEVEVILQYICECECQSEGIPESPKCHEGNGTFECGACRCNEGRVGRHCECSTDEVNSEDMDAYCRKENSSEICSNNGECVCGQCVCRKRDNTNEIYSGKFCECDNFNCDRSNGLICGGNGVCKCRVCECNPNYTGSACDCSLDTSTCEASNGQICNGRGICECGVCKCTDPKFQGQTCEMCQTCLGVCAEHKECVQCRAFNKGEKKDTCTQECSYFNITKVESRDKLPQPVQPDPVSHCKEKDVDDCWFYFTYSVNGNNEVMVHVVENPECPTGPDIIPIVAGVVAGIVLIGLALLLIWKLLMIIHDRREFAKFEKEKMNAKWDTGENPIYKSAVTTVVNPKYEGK
EXPERIMENT SUMMARY: Adhesion of wild-type K562 cells to immobilized fibronectin
Assay type: cell-based
CONDITION: wild-type K562 (α5β1); 30 min at 37 °C; read-out: IC50 α5β1-fibronectin
pIC50: −log10 of the molar value. Numbered stars: 1 amine (or outer) side, 2 acyl side, 3 side chain; on linkers, the order of the positions; unused ones are H or OH. Bridge positions count the residues as written; N and C are the ends. Square brackets hold non-standard residues; d marks the D form. Peptide text beside a SMILES is read from it. N(6-aminohexyl)Gly = O=C(CN(CCCCCCN[*:3])[*:1])[*:2]; N(2-Aminoethyl)Gly = O=C(CN(CCN[*:3])[*:1])[*:2]; CO = O=C([*:1])[*:2]; Nlys = NCCCCNCC(=O)O

Request: Any idea what its pIC50 is? The compound is CSCC[C@@H]1NC(=O)[C@H]([C@@H](C)O)NC(=O)CN(C(=O)[C@@H](N)CCCNC(=N)N)CCCCNC(=O)NCCCCN(CC(=O)N[C@@H](CC(C)C)C(N)=O)C(=O)[C@H](CC(=O)O)NC(=O)[C@H](CC(C)C)NC1=O [Arg-visabron c (4–4)] (H-R[Nlys]TMLD[Nlys]L-NH2; linker 2-7 via CO; N-terminus assumed)
Response: < 2.00

Request: Any idea what its pIC50 is? The compound is CSCC[C@@H]1NC(=O)[C@H]([C@@H](C)O)NC(=O)CN(C(=O)[C@@H](N)CCCCN)CCCCCCNC(=O)NCCCCCCN(CC(=O)N[C@@H](CC(C)C)C(N)=O)C(=O)[C@H](CC(=O)O)NC(=O)[C@H](CC(C)C)NC1=O [visabron c (6–6)] (H-K[N(6-aminohexyl)Gly]TMLD[N(6-aminohexyl)Gly]L-NH2; linker 2-7 via CO)
Response: < 2.00

Request: Any idea what its pIC50 is? The compound is CSCC[C@@H]1NC(=O)[C@H]([C@@H](C)O)NC(=O)CN(C(=O)[C@@H](N)CCCCN)CCNC(=O)NCCN(CC(=O)N[C@@H](CC(C)C)C(N)=O)C(=O)[C@H](CC(=O)O)NC(=O)[C@H](CC(C)C)NC1=O [visabron c (2–2)] (H-K[N(2-Aminoethyl)Gly]TMLD[N(2-Aminoethyl)Gly]L-NH2; linker 2-7 via CO)
Response: < 2.00
